# EC50 (cAMP partial agonist) per entry
# experimental-system: mouse melanocortin 1 receptor (mouse, UniProt Q01727 1-315)
# Sequence (Q01727 whole entry): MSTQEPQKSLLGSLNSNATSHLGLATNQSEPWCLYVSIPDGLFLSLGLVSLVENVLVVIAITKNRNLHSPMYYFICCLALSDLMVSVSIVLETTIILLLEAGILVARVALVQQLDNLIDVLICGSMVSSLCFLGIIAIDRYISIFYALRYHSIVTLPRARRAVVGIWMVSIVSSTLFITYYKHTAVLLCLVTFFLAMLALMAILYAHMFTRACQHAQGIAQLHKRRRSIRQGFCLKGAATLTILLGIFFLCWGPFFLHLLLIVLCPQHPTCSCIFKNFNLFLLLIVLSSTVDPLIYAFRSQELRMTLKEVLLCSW
# method: cell-based or functional assay
Square brackets hold non-standard residues; d marks the D form. Gly(N-(CH2)3-guanidino) = N=C(N)NCCCNCC(=O)O; Nphe = O=C(O)CNCc1ccccc1
Answer with a number only, understood to be in nM.

cyclo(P[Gly(N-(CH2)3-guanidino)]FFNAF[dP]) (SMILES C[C@@H]1NC(=O)[C@H](CC(N)=O)NC(=O)[C@H](Cc2ccccc2)NC(=O)[C@H](Cc2ccccc2)NC(=O)CN(CCCNC(=N)N)C(=O)[C@@H]2CCCN2C(=O)[C@H]2CCCN2C(=O)[C@H](Cc2ccccc2)NC1=O) [MDE7-26-1c]
3100
cyclo(PRF[Nphe]NAF[dP]) [MDE9-88c]
5600
PRFFXAFP (head-to-tail cyclic; NPhe (N-benzylglycine) at 3; Dap at 5; DPro at 8) [MDE9-32c]
110

Alright, here's another binder for you.
For the binder shown here, PRFFXAFP (head-to-tail cyclic; NPhe (N-benzylglycine) at 4; Dap at 5; DPro at 8) [MDE9-93c] , give the reported EC50 (cAMP partial agonist). 2700

The reported numbers originate from patent US20210179666A1.
